All figures here come from ChEMBL document CHEMBL1153004.

system: PC-3; test: Cytotoxicity against human PC3 cells after 3 hrs by MTS assay; assay type: functional, cell-based; conditions: PC-3, 3 h
endpoint: IC50

1) CO[C@H]1CC(=O)N[C@H](c2ccccc2)CO[C@H](OC)CCN(Cc2ccc(CN3CC[C@@H](OC)OC[C@@H](c4ccccc4)NC(=O)C[C@H](OC)OC[C@H]3c3ccccc3)cc2)[C@H](c2ccccc2)CO1    10 µM

----------
This listing pairs molecules with measured CC50.
assay: Cytotoxicity against human MT4 cells by MTT assay; assay type: cell-based
endpoint: CC50 (µM)

1) CO[C@H]1CC(=O)N[C@H](c2ccccc2)CO[C@H](OC)CCN(Cc2ccc(CN3CC[C@@H](OC)OC[C@@H](c4ccccc4)NC(=O)C[C@H](OC)OC[C@H]3c3ccccc3)cc2)[C@H](c2ccccc2)CO1    7.8
2) c1cc(CN2CCCNCCNCCCNCC2)ccc1CN1CCCNCCNCCCNCC1    6.5

----------
# reported CC50; entries follow
assay: Cytotoxicity against human CEM-SS cells by MTT assay; assay type: cell-based
endpoint: CC50

1. CO[C@H]1CCN(Cc2ccc(CN3CCO[C@H](OC)CC(=O)NCCO[C@@H](OC)CC3)cc2)CCO[C@H](OC)CC(=O)NCCO1 (relative stereo)    > 100 µM
2. c1cc(CN2CCCNCCNCCCNCC2)ccc1CN1CCCNCCNCCCNCC1    > 5 µM
3. CO[C@@H]1CCN(Cc2ccc(CN3CC[C@@H](OC)OC[C@@H](c4ccccc4)NC(=O)C[C@@H](OC)OC[C@H]3c3ccccc3)cc2)[C@H](c2ccccc2)CO[C@H](OC)CC(=O)N[C@H](c2ccccc2)CO1    > 10 µM
4. CO[C@H]1CC(=O)N[C@H](c2ccccc2)CO[C@H](OC)CCN(Cc2ccc(CN3CC[C@@H](OC)OC[C@@H](c4ccccc4)NC(=O)C[C@H](OC)OC[C@H]3c3ccccc3)cc2)[C@H](c2ccccc2)CO1    > 10 µM

----------
test system: Human immunodeficiency virus 1; assay: Antiviral activity against HIV1 3B in human MT4 cells assessed as inhibition of viral replication; format: functional, organism-based; conditions: Human immunodeficiency virus 1, 3B
endpoint: IC50

1) CO[C@H]1CC(=O)N[C@H](c2ccccc2)CO[C@H](OC)CCN(Cc2ccc(CN3CC[C@@H](OC)OC[C@@H](c4ccccc4)NC(=O)C[C@H](OC)OC[C@H]3c3ccccc3)cc2)[C@H](c2ccccc2)CO1    > 7.8 µM
2) CO[C@@H]1CCN(Cc2ccc(CN3CC[C@@H](OC)OC[C@@H](c4ccccc4)NC(=O)C[C@@H](OC)OC[C@H]3c3ccccc3)cc2)[C@H](c2ccccc2)CO[C@H](OC)CC(=O)N[C@H](c2ccccc2)CO1    > 10 µM
3) CO[C@H]1CCN(Cc2ccc(CN3CCO[C@H](OC)CC(=O)NCCO[C@@H](OC)CC3)cc2)CCO[C@H](OC)CC(=O)NCCO1 (relative stereo)    > 100 µM
4) c1cc(CN2CCCNCCNCCCNCC2)ccc1CN1CCCNCCNCCCNCC1    0.41 µM
